B1: Transcription intermediary factor 1-beta, residues 620 to 671; numbered along this chain, Q13263 (parent)
chain: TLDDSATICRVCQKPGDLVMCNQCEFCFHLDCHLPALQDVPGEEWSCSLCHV

- Variants of: B1
- Protocol notes: abundance fitness (aPCA) (normalised: wild type 0, dead -1); higher = more abundant; growth selection in yeast, the domain comes from the species named
- Conditions used: Homo sapiens
# label = criterion met if abundance fitness >= -0.09 else criterion not met

Exam item: decide whether the reported abundance fitness for "Q23R" is at least -0.09.
criterion not met

Exam item: decide whether the reported abundance fitness for "C21Q" is at least -0.09.
criterion not met

Exam item: decide whether the reported abundance fitness for "L49P" is at least -0.09.
criterion met

Exam item: decide whether the reported abundance fitness for "R10P" is at least -0.09.
criterion not met

Exam item: decide whether the reported abundance fitness for "E43H" is at least -0.09.
criterion met

Exam item: decide whether the reported abundance fitness for "P35G" is at least -0.09.
criterion not met

Exam item: decide whether the reported abundance fitness for "D39N" is at least -0.09.
criterion not met

Exam item: decide whether the reported abundance fitness for "A6S" is at least -0.09.
criterion not met

Exam item: decide whether the reported abundance fitness for "Q23F" is at least -0.09.
criterion not met

Exam item: decide whether the reported abundance fitness for "L37T" is at least -0.09.
criterion met
